# Tested on: Swiss mice, Sarcoma 180 sc, mean tumor weight T/C
# ASSAY: NCI In Vivo Anticancer Drug Screen. Data for tumor model Sarcoma 180 (subcutaneous) in Swiss mice
# TEST_SETTINGS: endpoint: mean tumor weight; dose: 200.0 mg/kg/injection; schedule: Q01DX007 (ip); vehicle: saline; higher = larger tumour
// reported T/C per item

Completed entries (count: 7):
{"COMPOUND": "CCC(CC)C(O)CCCN(C)C (stereo not drawn)", "ENDPOINT_VALUE": "95 % of control"}
{"COMPOUND": "NN1CCCC1", "ENDPOINT_VALUE": "36 % of control"}
{"COMPOUND": "O=c1[nH]cc(C(F)(F)F)c(=O)[nH]1", "ENDPOINT_VALUE": "63 % of control"}
{"COMPOUND": "CCCCN(C)N=Nc1ccc(CCCC(=O)OCC)cc1", "ENDPOINT_VALUE": "40 % of control"}
{"COMPOUND": "COc1ccc2c(=O)cc(-c3ccccc3)n(C)c2c1", "ENDPOINT_VALUE": "109 % of control"}
{"COMPOUND": "CCOC(=O)CCCc1ccc(N=NN(C)C)cc1", "ENDPOINT_VALUE": "12 % of control"}
{"COMPOUND": "Cc1ccccn1", "ENDPOINT_VALUE": "87 % of control"}

q: Tell me reported T/C for `Nc1ncnc2nc[nH]c12` , tested with Swiss mice, Sarcoma 180 sc, mean tumor weight T/C.
a: 57 % of control

###

# Tested on: Swiss mice, Sarcoma 180 sc, mean tumor weight T/C
# ASSAY: NCI In Vivo Anticancer Drug Screen. Data for tumor model Sarcoma 180 (subcutaneous) in Swiss mice
# TEST_SETTINGS: endpoint: mean tumor weight; dose: 7.5 mg/kg/injection; schedule: Q#A X014 (ip); vehicle: carboxymethylcellulose (CMC); higher = larger tumour
Square brackets hold non-standard residues; d marks the D form. Peptide text beside a SMILES is read from it. Ac5c = NC1(C(=O)O)CCCC1
EXPERIMENTAL_ENDPOINT: T/C

{"COMPOUND": "NNC(=O)c1ccncc1", "T/C": "112 % of control"}
{"COMPOUND": "COC12C(COC(N)=O)C3=C(C(=O)C(C)=C(N)C3=O)N1CC1C2N1C (centres undefined)", "T/C": "65 % of control"}
{"COMPOUND": "NC1(C(=O)NC2(C(=O)O)CCCC2)CCCC1 (H-[Ac5c]-[Ac5c]-OH)", "T/C": "66 % of control"}

--- query ---
q: For the record CC(N)C(=O)NC1(C(=O)O)CCCC1 (centres undefined) , what value of T/C is listed for Swiss mice, Sarcoma 180 sc, mean tumor weight T/C?
a: 75 % of control

###

# Tested on: Swiss mice, Sarcoma 180 sc, mean tumor weight T/C
# ASSAY: NCI In Vivo Anticancer Drug Screen. Data for tumor model Sarcoma 180 (subcutaneous) in Swiss mice
# TEST_SETTINGS: endpoint: mean tumor weight; dose: 62.5 mg/kg/injection; schedule: Q01DX007 (ip); vehicle: saline; higher = larger tumour
Each item that follows carries a reported T/C.

The following molecules have reported results that may help.
{"MOLECULAR_STRING": "CC(=O)Nc1c(Cl)c(Cl)c2c(c1Cl)Cc1cc(F)ccc1-2", "T/C": "78 % of control"}
{"MOLECULAR_STRING": "CCCCCC[C@@H](O)C/C=C\\CCCCCCCC(=O)O", "T/C": "95 % of control"}
{"MOLECULAR_STRING": "NNc1nnc(NN)c2ccccc12", "T/C": "176 % of control"}
{"MOLECULAR_STRING": "NCCc1ccccc1", "T/C": "32 % of control"}
{"MOLECULAR_STRING": "O=C(O)C(=O)O.[U]", "T/C": "35 % of control"}
{"MOLECULAR_STRING": "O=C(O)Cc1c[nH]c2ccccc12", "T/C": "71 % of control"}
{"MOLECULAR_STRING": "Cc1ncc([N+](=O)[O-])n1CCCl", "T/C": "108 % of control"}
{"MOLECULAR_STRING": "CC(C)=CCC/C(C)=C/CO", "T/C": "90 % of control"}

q: Any idea what T/C was measured for `c1ccc2nc3ccccc3c-2cc1` ?
a: 118 % of control
